tested on: KRas Q61H mutant; experiment: Ras GTP binding domain inhibition assay (Cy3-GTP/Cy5-GTP competition); set-up: species or system human; conditions: 20 μM; with SOS (Table 7A)
property label: KRas Q61H mutant + SOS: % inh.

Answered cases to consult:
[[record]]
compound = "COc1cccc(-c2sc3nc(-c4nccn4C)nc(N[C@@H]4CC[C@H](OC)C4)c3c2C)c1F [drawing 894]"
property_label = "KRas Q61H mutant + SOS: % inh."
value = "D (76-100% inhibition)"

[[record]]
compound = "CO[C@H]1C[C@@H](Nc2nc(-c3nccn3C)nc3sc(-c4ccn(C)n4)c(C)c23)C1 [drawing 914]"
property_label = "KRas Q61H mutant + SOS: % inh."
value = "C (51-75% inhibition)"

[[record]]
compound = "CO[C@H]1CC[C@@H](Nc2nc(-c3nccn3C)nc3sc(C(=O)N4CCCC4)c(-c4ccccc4)c23)C1 [drawing 926]"
property_label = "KRas Q61H mutant + SOS: % inh."
value = "D (76-100% inhibition)"

[[record]]
compound = "CO[C@H]1CC[C@@H](Nc2nc(-c3nccn3C)nc3sc(-c4ccn(C(C)C)n4)c(-c4ccccc4)c23)C1 [drawing 912]"
property_label = "KRas Q61H mutant + SOS: % inh."
value = "D (76-100% inhibition)"

[[record]]
compound = "CO[C@H]1C[C@@H](Nc2nc(-c3nccn3C)nc3sc(-c4ccn(C)n4)c(-c4ccccc4)c23)C1.Cl"
property_label = "KRas Q61H mutant + SOS: % inh."
value = "D (76-100% inhibition)"

[[record]]
compound = "Cn1ccc(-c2sc3nc(-c4nccn4C)nc(N[C@H]4C[C@@H](O)C4)c3c2-c2ccccc2)n1 [drawing 908]"
property_label = "KRas Q61H mutant + SOS: % inh."
value = "0 (0% inhibition)"


QUERY: Param item = CO[C@H]1CC[C@@H](Nc2nc(-c3nccn3C)nc3sc(-c4cccc5[nH]ncc45)c(-c4ccccc4)c23)C1 [drawing 889] ; retrieve measured KRas Q61H mutant + SOS: % inh..
RESULT: D (76-100% inhibition)

QUERY: Input CO[C@H]1C[C@@H](Nc2nc(-c3nccn3C)nc3sc(-c4cnn(C)c4)c(-c4ccccc4)c23)C1 [drawing 892]
RESULT: D (76-100% inhibition)
